Target: T1, eukaryotic translation initiation factor 4E (eIF4E), full length human (human, UniProt P06730 2-217)
T1 construct: mature; read as P06730; also called eIF4E protein
T1 sequence (P06730 2-217): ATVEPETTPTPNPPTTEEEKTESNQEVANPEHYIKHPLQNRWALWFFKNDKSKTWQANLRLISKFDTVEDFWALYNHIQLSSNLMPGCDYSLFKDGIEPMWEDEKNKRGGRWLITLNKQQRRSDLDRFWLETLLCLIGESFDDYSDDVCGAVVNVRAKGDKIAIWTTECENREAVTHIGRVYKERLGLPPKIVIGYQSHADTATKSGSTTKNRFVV
Assay: Kd estimated from the FTS thermal shift of eIF4E (10 µM eIF4E, 100 µM peptide)
Square brackets hold non-standard residues; d marks the D form. Ends that are not written are not given here. Ac5c = NC1(C(=O)O)CCCC1; Aib = CC(C)(N)C(=O)O
recorded.endpoint: pKd
FYI, pKd means -log10 of a concentration in mol per litre.

Asked: Any idea what its pKd is? The binder is YDREFLLAFQF-NH2 (not fully specified) [Tr2_AIB3_ALA]
Given back: 5.59

Asked: Quick check: pKd of YAREFLL[Ac5c]FQF (not fully specified (C-terminus)) [Tr2_ALA_A5C1 (Tr2_AIB3_A5C with alanine at position 625)] ?
Given back: 6.12

Asked: Record request: pKd value, item YDREFLLGF[Aib]F (not fully specified (C-terminus)) [Tr2_AIB4 peptide]
Given back: 4.60

Asked: Dear colleague, I am looking for the recorded pKd of the following binder: YDREALL[Ac5c]FQF (not fully specified (C-terminus), 29=625, 30=626, 31=627, 34=633)) [Tr2_ALA_A5C4 (Tr2_AIB3_A5C with F628 replaced with alanine)]
Given back: 5.09

Asked: Which measured pKd value corresponds to YDREFLLXFQF (not fully specified; G631 replaced with aminoisobutyric acid (Aib)) [Tr2_AIB3 peptide] ?
Given back: 5.52

Asked: # get_value(readout='pKd', item= Y[Aib]REFLLGFQF (not fully specified (C-terminus)) [Tr2_AIB1 peptide] )
Given back: 4.53
